Numbers sourced from ChEMBL document CHEMBL2218924.

Biological target: Dual specificity mitogen-activated protein kinase kinase 1 (Homo sapiens)
Conditions: at 1 µM
Description: Millipore: Percentage of residual kinase activity of MAP2K1 at 1uM relative to control. Control inhibitor: Phosphoric acid* at 0.3uM. Buffer: 50 mM Tris pH 7.5, 0.2 mM EGTA, 0.1% ?-mercaptoethanol, 0.01% Brij-35
MEASURED METRIC: residual activity (%)
# number only, unit % dropped from output

Before answering, review these 3 worked examples.
Record "c1ccc2c(-c3ccncc3)c[nH]c2c1" : what is its residual activity with Dual specificity mitogen-activated protein kinase kinase 1 (Homo sapiens)?
87

"CCN(CC)C(=O)c1ccc(Nc2nc(OCC3CCCCC3)c3nc[nH]c3n2)cc1" , same question.
48

"CC#CC(=O)Nc1cc2c(Nc3ccc(F)c(Cl)c3)ncnc2cn1" , same question.
111

Could you now consider this next compound?
Record "N#C/C(=C(\N)Sc1ccc(N)cc1)c1ccccc1C(F)(F)F" : what is its residual activity with Dual specificity mitogen-activated protein kinase kinase 1 (Homo sapiens)?
104

###

Molecular target: Ephrin type-A receptor 4 (Homo sapiens)
Conditions: at 10 µM
Respond with class 1 for residual activity values of 90% and above, class 0 for values below.

A selection of reference data follows.
State whether the measured residual activity reaches 90%, counting equality as reaching it, for "CN(C)c1ccc(/C=C2\C(=O)Nc3ccccc32)cc1"
class 1

"Oc1ccc(-c2nc(-c3ccc(F)cc3)c(-c3ccncc3)[nH]2)cc1" , same question.
class 0

"NC(=O)c1ccc2[nH]c(-c3ccc(Oc4ccc(Cl)cc4)cc3)nc2c1" , same question.
class 1

Here is another compound to look at.
State whether the measured residual activity reaches 90%, counting equality as reaching it, for "CNc1cc2c(Nc3cccc(Br)c3)ncnc2cn1"
class 1

###

Target: Vascular endothelial growth factor receptor 1 (Homo sapiens) (UniProt P17948)
Sequence (P17948 whole entry): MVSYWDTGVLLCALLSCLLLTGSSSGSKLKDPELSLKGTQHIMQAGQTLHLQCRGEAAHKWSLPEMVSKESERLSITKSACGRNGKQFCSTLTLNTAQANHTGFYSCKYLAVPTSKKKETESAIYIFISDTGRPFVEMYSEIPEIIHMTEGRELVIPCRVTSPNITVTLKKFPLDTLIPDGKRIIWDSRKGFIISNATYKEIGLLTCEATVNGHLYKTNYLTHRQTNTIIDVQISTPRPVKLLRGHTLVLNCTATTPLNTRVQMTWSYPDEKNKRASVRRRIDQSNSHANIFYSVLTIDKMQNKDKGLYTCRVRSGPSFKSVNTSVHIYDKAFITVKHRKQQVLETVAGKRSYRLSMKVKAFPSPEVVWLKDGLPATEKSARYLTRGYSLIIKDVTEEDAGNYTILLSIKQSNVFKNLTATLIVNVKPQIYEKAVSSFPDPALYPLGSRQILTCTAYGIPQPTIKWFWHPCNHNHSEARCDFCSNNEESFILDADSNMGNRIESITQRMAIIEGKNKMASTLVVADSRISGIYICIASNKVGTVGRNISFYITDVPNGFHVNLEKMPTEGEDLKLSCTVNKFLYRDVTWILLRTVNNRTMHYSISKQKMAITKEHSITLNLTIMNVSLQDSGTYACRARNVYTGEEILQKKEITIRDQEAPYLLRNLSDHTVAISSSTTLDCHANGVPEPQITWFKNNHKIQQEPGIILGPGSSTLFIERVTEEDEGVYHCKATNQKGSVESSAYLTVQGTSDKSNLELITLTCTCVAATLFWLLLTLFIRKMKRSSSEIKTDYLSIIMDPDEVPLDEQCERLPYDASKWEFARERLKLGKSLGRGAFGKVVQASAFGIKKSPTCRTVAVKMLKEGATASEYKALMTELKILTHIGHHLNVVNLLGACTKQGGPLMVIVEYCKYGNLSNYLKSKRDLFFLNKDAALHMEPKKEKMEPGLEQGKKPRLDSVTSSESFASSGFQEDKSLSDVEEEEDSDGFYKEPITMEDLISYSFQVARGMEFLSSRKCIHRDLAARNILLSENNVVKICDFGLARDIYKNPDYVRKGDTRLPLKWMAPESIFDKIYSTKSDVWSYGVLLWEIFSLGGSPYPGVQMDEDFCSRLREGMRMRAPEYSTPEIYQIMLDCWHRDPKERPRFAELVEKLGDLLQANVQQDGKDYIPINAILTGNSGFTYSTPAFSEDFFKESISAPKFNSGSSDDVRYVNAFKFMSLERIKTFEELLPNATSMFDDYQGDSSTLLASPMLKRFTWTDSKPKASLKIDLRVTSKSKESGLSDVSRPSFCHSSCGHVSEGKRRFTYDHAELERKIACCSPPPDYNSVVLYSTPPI
Settings: at 1 µM
Lab note - cut at 80% for residual activity: yes (1) if strictly below, no (0) if not.

Decide: residual activity of "COc1cc2ncc(-c3ccccc3)nc2cc1OC" strictly below 80%?
no (0)

"O=c1cc(-c2cccc3c2Sc2ccccc2S3)oc(N2CCOCC2)c1" , same question.
no (0)

"Cc1nc2cc3nc(-c4cccs4)cnc3cc2n1C" , same question.
yes (1)

***
Decide: residual activity of "O=C(O)c1ccc2c3c1cccc3c(=O)n1c3ccccc3nc21" strictly below 80%?
no (0)

"CC(C)n1cnc2c(NCc3ccccc3)nc(NCCCO)nc21" , same question.
no (0)

"c1ccc2c(-c3ccncc3)c[nH]c2c1" , same question.
no (0)

"Ic1cccc(CSc2nnc(-c3ccncc3)o2)c1" , same question.
yes (1)

"Cc1cccc(-c2[nH]c(C(C)(C)C)nc2-c2ccc3c(c2)OCO3)n1" , same question.
no (0)

"COc1cccc(-c2cc(=O)c3ccccc3o2)c1N" , same question.
no (0)

"O=C1Nc2cc(Br)ccc2/C1=C1/Nc2ccccc2/C1=N\O" , same question.
yes (1)

"COc1ccc(C(=O)Nc2sc3c(c2C(N)=O)CCCC3)cc1OC" , same question.
yes (1)

"Nc1nc(Nc2ccc(S(N)(=O)=O)cc2)nn1C(=S)Nc1c(F)cccc1F" , same question.
yes (1)

"O=Nc1c(-c2c(O)[nH]c3ccccc23)[nH]c2ccccc12" , same question.
yes (1)

###

Biological target: Cyclin-dependent kinase 2/cyclin E (Homo sapiens) (UniProt P24864+P24941+O96020)
Conditions: at 1 µM
MEASURED METRIC: residual activity (%)
# number only, unit % dropped from output

For the compound shown here, "COc1ccc(S(=O)(=O)N(CCO)c2ccccc2CN(C)C/C=C/c2ccc(Cl)cc2)cc1" , give the reported residual activity.
106

"O=C1NC(=O)/C(=C/c2ccc3c(c2)OC(F)(F)O3)S1" , same question.
102

"Nc1ccc2ncnc(NCCc3ccc(Oc4ccccc4)cc3)c2c1" , same question.
98

"Cc1cncc2cccc(S(=O)(=O)N3CCCN(C(=O)CN)C[C@H]3C)c12" , same question.
97

"Cn1cnc2cc3c(Nc4cccc(Br)c4)ncnc3cc21" , same question.
110

"COc1cc2ncnc(Nc3ccc(NC(=O)c4ccccc4)cc3)c2cc1OC" , same question.
104

"COc1ccc(C(=O)Nc2sc3c(c2C(N)=O)CCCC3)cc1OC" , same question.
106

"O=C1Nc2cc(Br)ccc2/C1=C1/Nc2ccccc2/C1=N\O" , same question.
3

***
For the compound shown here, "CCOc1cc2ncnc(Nc3cccc(Br)c3)c2cc1OCC" , give the reported residual activity.
92

"O=C(Nc1cccc(Nc2cc(Nc3cccc(C(F)(F)F)c3)ncn2)c1)C1CC1" , same question.
99

"COc1ccc(OC)c2c(=S)c3ccccc3[nH]c12" , same question.
85

"COc1ccc(CNc2nc(N(CCO)CCO)nc3c2ncn3C(C)C)cc1" , same question.
18

"Cc1nc2cc3nc(-c4cccs4)cnc3cc2n1C" , same question.
115

"O=c1cc(-c2cccc3c2Sc2ccccc2S3)oc(N2CCOCC2)c1" , same question.
101

"Oc1ccc(Nc2nc(-c3ccc(Cl)cc3)cs2)cc1" , same question.
100
